target.or.system: Delta-type opioid receptor (Mus musculus) (UniProt P32300)
Sequence (P32300 whole entry): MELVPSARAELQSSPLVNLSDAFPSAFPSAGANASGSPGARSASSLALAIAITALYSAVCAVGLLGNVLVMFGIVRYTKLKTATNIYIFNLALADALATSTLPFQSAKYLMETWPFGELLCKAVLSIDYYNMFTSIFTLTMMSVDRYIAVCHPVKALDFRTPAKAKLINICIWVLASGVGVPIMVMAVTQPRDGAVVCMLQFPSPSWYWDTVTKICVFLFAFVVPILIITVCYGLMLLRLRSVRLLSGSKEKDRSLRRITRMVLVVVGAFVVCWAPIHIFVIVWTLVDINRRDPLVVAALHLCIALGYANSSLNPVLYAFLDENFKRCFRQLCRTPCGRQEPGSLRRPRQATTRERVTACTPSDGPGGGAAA
assay.name: Ratio of IC50 DADLE and antagonist binding to delta opioid receptor
Measured Ratio determines class: interval 1: < 0.9; interval 2: ≥ 0.9 and < 5; interval 3: ≥ 5

CC(=O)O[C@@]12Cc3c([nH]c4c3C[C@@]3(OC(C)=O)[C@H]5Cc6ccc(O)c7c6[C@@]3(CCN5CC3CC3)[C@H]4O7)[C@@H]3Oc4c(O)ccc5c4[C@@]31CCN(CC1CC1)[C@@H]2C5 interval 3

Prompt line: Which class holds Oc1ccc2c3c1O[C@H]1c4[nH]c5c(c4C[C@@]4(O)[C@@H](C2)N(CC2CC2)CC[C@]314)C[C@@]1(O)[C@H]2Cc3ccc(O)c4c3[C@@]1(CCN2CC1CC1)[C@H]5O4 ?
Response line: interval 2

Prompt line: Which class holds COc1ccc2c3c1O[C@H]1c4[nH]c5c(c4C[C@H]4[C@@H](C2)N(C)CC[C@]314)C[C@H]1[C@H]2Cc3ccc(OC)c4c3[C@@]1(CCN2C)[C@H]5O4 ?
Response line: interval 2

Prompt line: Which class holds CN1CC[C@]23c4c5ccc(O)c4O[C@H]2c2[nH]c4c(c2C[C@@]3(O)[C@H]1C5)C[C@@]1(O)[C@H]2Cc3ccc(O)c5c3[C@@]1(CCN2C)[C@H]4O5 ?
Response line: interval 2

Prompt line: Which class holds COc1ccc2c3c1O[C@H]1c4[nH]c5c(c4C[C@@]4(O)[C@@H](C2)N(CC2CC2)CC[C@]314)C[C@@]1(O)[C@H]2Cc3ccc(O)c4c3[C@@]1(CCN2CC1CC1)[C@H]5O4 ?
Response line: interval 3

Prompt line: Which class holds COc1ccc2c3c1O[C@H]1c4[nH]c5c(c4C[C@@]4(O)[C@@H](C2)N(CC2CC2)CC[C@]314)C[C@@]1(O)[C@H]2Cc3ccc(OC)c4c3[C@@]1(CCN2CC1CC1)[C@H]5O4 ?
Response line: interval 1

Prompt line: Which class holds Cn1c2c(c3c1[C@@H]1Oc4c(O)ccc5c4[C@@]14CCN(CC1CC1)[C@H](C5)[C@]4(O)C3)C[C@@]1(O)[C@H]3Cc4ccc(O)c5c4[C@@]1(CCN3CC1CC1)[C@H]2O5 ?
Response line: interval 2

Prompt line: Which class holds Oc1ccc2c3c1O[C@H]1c4[nH]ccc4C[C@@]4(O)[C@@H](C2)N(CC2CC2)CC[C@]314 ?
Response line: interval 3

Prompt line: Which class holds CN1CC[C@]23c4c5ccc(O)c4O[C@H]2c2[nH]c4c(c2C[C@H]3[C@H]1C5)C[C@H]1[C@H]2Cc3ccc(O)c5c3[C@@]1(CCN2C)[C@H]4O5 ?
Response line: interval 1

Origin of the recorded values: ChEMBL document CHEMBL1124089
